# Test summary: Tmax in ICR mouse at 30 mg/kg, po via gavage by LC-MS/MS analysis
# Format: ADME, organism-based
# Run conditions: in vivo
Result type: Tmax (min)
One number for each entry, in min.

So, COC[C@@H]1NC(=O)c2nccn2CCCCCCOC[C@@H](C(=O)N[C@@H](Cc2ccccc2)C(=O)[C@@]2(C)CO2)NC1=O ? Its Tmax was 13.2

---

# Test summary: Volume of distribution at steady state in ICR mouse at 5 mg/kg, iv by LC-MS/MS analysis
# Format: ADME, organism-based
# Run conditions: in vivo, read-out: Vdss
Kindly state Vd for each of the entries shown.
Record the result as number plus unit.

INSERT INTO results (compound, result) VALUES
  ('COC[C@@H]1NC(=O)c2ccnn2CCCCCCOC[C@@H](C(=O)N[C@@H](Cc2ccccc2)C(=O)[C@@]2(C)CO2)NC1=O', '0.48 L/kg');

Consider the following items and state reported Vd for each.
1. COC[C@H](NC(=O)c1cnc(C)s1)C(=O)N[C@@H](COC)C(=O)N[C@@H](Cc1ccccc1)C(=O)[C@@]1(C)CO1 [OPROZOMIB]
2. COC[C@@H]1NC(=O)c2ccccc2OCCCCCCOC[C@@H](C(=O)N[C@@H](Cc2ccccc2)C(=O)[C@@]2(C)CO2)NC1=O

["0.51 L/kg", "0.62 L/kg"]

---

# Test summary: Cmax in ICR mouse at 30 mg/kg, po via gavage by LC-MS/MS analysis
# Type: ADME, organism-based
# Set-up: dose 30 mg/kg, route oral
# Run conditions: in vivo
Result type: Cmax (ng/mL)
Give bare numbers, in ng/mL.

So, COC[C@@H]1NC(=O)c2nccn2CCCCCCOC[C@@H](C(=O)N[C@@H](Cc2ccccc2)C(=O)[C@@]2(C)CO2)NC1=O ? Its Cmax was 92

---

# Test summary: Half life in ICR mouse at 5 mg/kg, iv by LC-MS/MS analysis
# Format: ADME, organism-based
# Run conditions: in vivo
Result type: half-life (min)
Give bare numbers, in min.

Previously resolved entries follow.
INSERT INTO results (molecule, numeric_result) VALUES
  ('COC[C@@H]1NC(=O)c2ccccc2OCCCCCCOC[C@@H](C(=O)N[C@@H](Cc2ccccc2)C(=O)[C@@]2(C)CO2)NC1=O', 9.6),
  ('COC[C@@H]1NC(=O)c2ccnn2CCCCCCOC[C@@H](C(=O)N[C@@H](Cc2ccccc2)C(=O)[C@@]2(C)CO2)NC1=O', 6);

Here is the next item to consider.
So, COC[C@H](NC(=O)c1cnc(C)s1)C(=O)N[C@@H](COC)C(=O)N[C@@H](Cc1ccccc1)C(=O)[C@@]1(C)CO1 ? Its half-life was 2.4

---

# Test summary: Metabolic stability in mouse liver microsomes assessed as parent compound remaining at 100 uM after 30 mins by LC-MS/MS analysis
# Format: ADME, Microsome
# Run conditions: read-out: Stability
Result type: remaining at 0.5 h, 100 µM
Record the result as number plus unit.

Previously resolved entries follow.
INSERT INTO assay_data (molecule, result) VALUES
  ('COC[C@@H]1NC(=O)c2cnn(C)c2CCCCCCOC[C@@H](C(=O)N[C@@H](Cc2ccccc2)C(=O)[C@@]2(C)CO2)NC1=O', '48%'),
  ('COC[C@H](NC(=O)c1cnc(C)s1)C(=O)N[C@@H](COC)C(=O)N[C@@H](Cc1ccccc1)C(=O)[C@@]1(C)CO1', '60%'),
  ('COC[C@@H]1NC(=O)c2ccnn2CCCCCCOC[C@@H](C(=O)N[C@@H](Cc2ccccc2)C(=O)[C@@]2(C)CO2)NC1=O', '75%');

Consider the following items and state reported remaining at 0.5 h, 100 µM for each.
1. COC[C@@H]1NC(=O)c2nccn2CCCCCCOC[C@@H](C(=O)N[C@@H](Cc2ccccc2)C(=O)[C@@]2(C)CO2)NC1=O
2. COC[C@@H]1NC(=O)c2cnn(C)c2OCCCCCCOC[C@@H](C(=O)N[C@@H](Cc2ccccc2)C(=O)[C@@]2(C)CO2)NC1=O

92%
63%
